Values compiled from PubChem BioAssay.

# protocol description: resazurin metabolic signal in HepG2 cells – cell-based, resazurin fluorescence, 24 h, PK04 Diversity Set, profiling panel (AID 1172); further: test concentration not given here
# study conditions: HepG2 viability, higher = more signal
value kind: z-score
Lab note: write the figure by itself, no unit.

Examples with their reported z-score follow.
O=C(CS)NCCCCCNC(=O)[C@@H]1C[C@@H]2C(=O)N3CCC[C@H]3C(=O)N2[C@@H]1c1ccc(O)cc1; -0.196
COc1ccc(C#Cc2ccc3c(c2)[C@]2(C(=O)N3)[C@H](C(N)=O)[C@H]3C(=O)O[C@H](c4ccccc4)[C@H](c4ccccc4)N3[C@@H]2c2ccc(O)cc2)cc1; -0.295
CC(C)CNC(=O)[C@@]1(C)c2ccccc2C(=O)N(Cc2ccccc2)[C@H]1c1ccc(CO)cc1; 0.702

Documented z-score of CC(C)C(CO)N1C(=O)[C@@H]2[C@H]3C(=O)OCC=C[C@H]3OC23C=CCN(Cn2nnc4ccccc42)C(=O)[C@@H]13 (some centres undefined) : 0.288

----------
# measured on: Dickkopf-related protein 1 (Homo sapiens)
# protocol description: small molecules binding DKK1 protein – biochemical, small-molecule microarray, 635 nm fluorescence scan, primary screen (AID 1106);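 further: score merges emission near 667 nm with signal to noise over three replicate slides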
# study conditions: higher = more signal
Label scheme for composite z-score: lower than 0.03 is Not met, 0.03 and above is Met.

O=C1C[C@@](C(=O)O)(c2ccc([N+](=O)[O-])cc2)[C@@H](c2ccc(CO)cc2)N1CC12CC3CC(CC(C3)C1)C2; Not met
CC1=C2[C@@H](CCc3ccccc3)OB(O)C[C@@H]2[C@@H]2C(=O)C=CC(=O)[C@@H]2C1; Met
CCCC=C(CCC)[C@@H](NS(=O)(=O)c1cccc2cccnc12)c1ccc(C(=O)OC)cc1; Met

Given the entry CC(C)CNC(=O)[C@@]1(C)c2ccccc2C(=O)N(Cc2ccccc2)[C@H]1c1ccc(CO)cc1 , answer whether its composite z-score meets or surpasses 0.03.
Not met

Tell me whether composite z-score is at least 0.03 here: COc1ccc(C(=O)Nc2ccc3c(c2)[C@]2(O[C@@H](CCO)[C@H]([Si](C)(C)c4ccc(OC)cc4)[C@H]2C)C(=O)N3Cc2ccccc2)cc1
Met

Has COC(=O)c1c(CC[C@@H](CO)NC(=O)N[C@@H](C)Cn2cc(C3(O)CCCC3)nn2)oc(C(C)=O)c1C(=O)OC a recorded composite z-score greater than or equal to 0.03?
Not met

Textbook exercise: given the entry C/C=C/[C@@H](CCn1cc([C@H](O)c2ccccc2)nn1)[Si](C)(C)c1ccc(OC)cc1 , state whether its composite z-score is greater than or equal to 0.03.
Not met

Identify whether the reported composite z-score of the following compound is 0.03 or greater: COCCCNC(=O)[C@@]1(Cc2ccccc2I)c2ccccc2C(=O)N(Cc2ccccc2Cl)[C@H]1c1ccc(CO)cc1
Met

----------
# measured on: NADPH oxidase 4 (Homo sapiens) (UniProt Q9NPH5)
# Sequence (Q9NPH5 whole entry, looked up): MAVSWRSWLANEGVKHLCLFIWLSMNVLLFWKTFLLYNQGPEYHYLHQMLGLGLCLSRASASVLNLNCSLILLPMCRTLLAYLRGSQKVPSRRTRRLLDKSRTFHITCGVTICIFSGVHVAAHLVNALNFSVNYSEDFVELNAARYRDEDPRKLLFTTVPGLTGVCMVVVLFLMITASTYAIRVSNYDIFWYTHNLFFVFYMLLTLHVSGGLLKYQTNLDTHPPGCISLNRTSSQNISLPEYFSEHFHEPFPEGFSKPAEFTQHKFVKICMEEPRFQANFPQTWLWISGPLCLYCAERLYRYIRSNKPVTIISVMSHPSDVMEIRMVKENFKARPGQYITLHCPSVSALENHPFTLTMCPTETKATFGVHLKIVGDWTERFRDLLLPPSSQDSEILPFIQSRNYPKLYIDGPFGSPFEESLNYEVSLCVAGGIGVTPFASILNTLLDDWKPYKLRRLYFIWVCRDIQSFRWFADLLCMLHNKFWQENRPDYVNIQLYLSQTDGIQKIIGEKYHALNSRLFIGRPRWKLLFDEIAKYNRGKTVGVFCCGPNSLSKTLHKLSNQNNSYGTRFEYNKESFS
# protocol description: compounds shifting NOX4 Amplex Red fluorescence – cell-based, HEK293-NOX4, tetracycline-induced, NOX inhibitor project, primary screen (AID 1160)
# study conditions: HEK293-NOX4, Amplex Red H2O2 fluorescence, 45 min; higher = more signal, called active from +8 up or from −8 down
Measured z-score determines class: small value (below -0.6), mid value (-0.6 to below 0.4), large value (0.4 or more)

A selection of reference data follows.
CC(C)CN1C(=O)[C@@]2(Cc3ccccc31)c1ccccc1C(=O)N(Cc1ccccc1)[C@H]2c1ccc(CO)cc1; mid value
C[N+](C)(C)CCCCNC(=O)[C@H]1C[C@H]2C(=O)NCC(=O)N2[C@H]1c1ccc(O)cc1; small value
C[C@]12C(=O)N(CCCO)[C@@H]3C(=O)N(c4ccc(Cl)cc4)CC=CC31O[C@@H]1/C=C\CCCOC(=O)C12 (stereo not given in full); large value
COC(=O)[C@@]1(Cc2ccc(OC)cc2)[C@H]2c3cc(C(=O)N4CCCC4)n(CCc4ccc(O)c(OC)c4)c3C[C@H]2CN1C(=O)c1ccccc1; small value

State the band of O=C1C2C=CC(C(O)c3cccc4ccccc34)N(Nc3ccccc3)C2C(=O)N1c1ccccc1 (stereo not given)
small value

Field: class (z-score) — entry: COCC(=C=CC[C@@H](O)c1ccccc1OCCO)C[C@@H](O)c1ccccn1
small value

For the record COc1cccc(C[C@H]2C[C@@H](CO[Si](C(C)C)(C(C)C)C(C)C)N3C(=O)[C@]4(C(C)=O)O[C@]23[C@H]2C(=O)N(C)C(=O)[C@H]24)c1 , report the class its z-score corresponds to.
large value

Sort into band: CN(C)C(=O)[C@@]1(CCC(=O)OC(C)(C)C)COC(c2ccc(OCCCO)cc2)=N1
large value

Class? Entry: O=C1O[C@H](c2ccccc2)[C@H](c2ccccc2)N2[C@H]1[C@@H](C(=O)N1CCN(c3ncccn3)CC1)[C@]1(C(=O)Nc3ccc(C#CCCO)cc31)[C@H]2c1ccccc1OCCO
large value

Which category does the recorded z-score put COCC1=C([C@H](O)CCc2ccccc2)[C@H](CO)[C@@H]2C(=O)N(C)C(=O)[C@@H]2C1 in?
mid value

----------
# protocol description: growth modulation of vineyard yeast isolate – strain RM11-1a, OD600, basal, 24 h, primary screen (AID 1177);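 further: cultures grown under basal conditions with no added stressor; test concentration not given here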
# study conditions: S. cerevisiae RM11-1a growth, OD600, 24 h; higher = more signal, called active from +8 up or from −8 down
Quick reference for z-score among some compounds
// no unit string in output, number only

// worked examples, z-score included
Cc1ccc(S[C@]2(C(=O)O)CC(=O)N(Cc3ccccc3C(F)(F)F)[C@@H]2c2ccc(CO)cc2)cc1; 0.383
CN(C)CCCNC(=O)[C@@]1(Cc2ccccc2I)c2ccccc2C(=O)N(Cc2ccccc2Cl)[C@H]1c1ccc(CO)cc1; -0.0889
CCCC=C(CCC)[C@@H](NS(=O)(=O)c1cccc2cccnc12)c1ccc(C(=O)OC)cc1; 1.04
CN(C)C(=O)[C@@]1(CCC(=O)OC(C)(C)C)N=C(c2ccc(OCCCO)cc2)O[C@H]1c1ccccc1N=[N+]=[N-]; 1.98
CC(C)C(CO)N1C(=O)[C@@H]2[C@H]3C(=O)OCC=C[C@H]3OC23C=CCN(CCN2CCOCC2)C(=O)[C@@H]13 (stereo not given in full); 1.21

Query COCCOC(=O)N1C(=O)[C@@]2(c3ccccc31)[C@H](c1ccccc1OCCO)N1[C@H](c3ccccc3)[C@H](c3ccccc3)OC(=O)[C@H]1[C@@H]2C(=O)N1CCc2cc(OC)c(OC)cc2C1 yields z-score of 3.06

The value of z-score measured for the compound COc1ccc([Si](C)(C)[C@@H]2[C@@H](CCO)O[C@]3(C(=O)N(Cc4ccc(N5C(=O)c6ccccc6Oc6ccccc65)cc4)c4ccccc43)[C@H]2C)cc1 turned out to be 4.38

Please fill in: z-score reported for COc1ccc([Si](C)(C)[C@@H]2[C@@H](CCO)O[C@]3(C(=O)N(Cc4cccc(N5C(=O)COc6ccccc65)c4)c4ccccc43)[C@H]2C)cc1 = 4.05

----------
# protocol description: growth of efflux-deficient E. coli DRC39 – strain DRC39, OD650, 24 h, E. coli filamentation inducers, primary screen (AID 1178);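 further: growth measured as culture turbidity by optical density at 650 nm; test concentration not given here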
# study conditions: E. coli DRC39 acrAB, higher = more signal, called active from +8 up or from −8 down
Classification field: enter yes (1) for z-score values not below -0.3, no (0) for values below it.

Example results:
O=C1C[C@@](C(=O)NCc2ccccc2)(c2ccc([N+](=O)[O-])cc2)[C@@H](c2ccc(CO)cc2I)N1C1CCCCC1; yes (1)
COc1ccc(C#Cc2ccc3c(c2)[C@]2(C(=O)N3)[C@H](C(N)=O)[C@H]3C(=O)O[C@H](c4ccccc4)[C@H](c4ccccc4)N3[C@@H]2c2ccc(O)cc2)cc1; yes (1)
CC1CC/C=C\[C@H]2OC34C=CCN(Cc5ccccc5)C(=O)[C@H]3N(CCO)C(=O)[C@@H]4C2C(=O)O1 (stereo partly specified); yes (1)

Please check the record COCCOC(=O)N1C(=O)[C@@]2(c3ccccc31)[C@H](c1ccccc1OCCO)N1[C@H](c3ccccc3)[C@H](c3ccccc3)OC(=O)[C@H]1[C@@H]2C(=O)N1CCc2cc(OC)c(OC)cc2C1 and state if its z-score is at or above -0.3.
no (0)

Could you verify whether the entry CCOC(=O)C1=CC[C@@H](c2cccc(Br)c2)N(S(=O)(=O)c2ccc(C)cc2)[C@H]1c1ccc([N+](=O)[O-])cc1 shows z-score of no less than -0.3?
no (0)

----------
In this section, each of the compounds is paired with its reported composite z-score.
# measured on: E3 ubiquitin-protein ligase XIAP (Homo sapiens) (UniProt P98170)
# Sequence (P98170 whole entry, looked up): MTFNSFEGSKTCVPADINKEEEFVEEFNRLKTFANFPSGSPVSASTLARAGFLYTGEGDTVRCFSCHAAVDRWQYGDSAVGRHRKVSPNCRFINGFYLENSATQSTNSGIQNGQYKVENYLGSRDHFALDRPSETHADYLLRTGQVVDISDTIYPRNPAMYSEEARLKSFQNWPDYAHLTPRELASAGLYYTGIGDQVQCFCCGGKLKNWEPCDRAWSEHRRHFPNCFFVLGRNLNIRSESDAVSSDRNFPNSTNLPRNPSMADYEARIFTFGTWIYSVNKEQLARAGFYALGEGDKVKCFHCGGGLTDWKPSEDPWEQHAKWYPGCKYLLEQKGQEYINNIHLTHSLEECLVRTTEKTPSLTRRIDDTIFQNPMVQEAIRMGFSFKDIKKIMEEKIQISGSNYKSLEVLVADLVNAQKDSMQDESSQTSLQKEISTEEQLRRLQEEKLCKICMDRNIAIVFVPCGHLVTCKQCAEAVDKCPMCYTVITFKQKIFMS
# protocol description: small molecules binding XIAP protein – biophysical, small-molecule microarray, fluorescence 635 nm, primary screen (AID 1181);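 further: score merges 667 nm emission and signal to noise over triplicate slides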
# study conditions: higher = more signal
// response body must contain only the number

Examples with their reported composite z-score follow.
CCCCC(=C=CC[C@H](O)c1cccc(OCCO)c1)C[C@H](O)COCc1ccccc1; -0.165
CN1C(=O)C2C=CC(C(O)C3CCCCC3)N(N(c3ccccc3)c3ccccc3)C2C1=O (stereo not drawn); 0.264
CCOC(=O)C[C@H]1[C@H](OC(=O)c2ccc(C(=O)c3ccccc3)cc2)[C@@H](NC(=O)C2CCCCC2)c2cc(OCCCO)ccc2N1C(=O)Cc1ccc(OC)cc1; -0.141
C=CC[C@]1(C(=O)NCC(O)CO)N=C(c2ccc(OCCCO)cc2)O[C@H]1c1ccccc1N=[N+]=[N-] (stereo partly drawn); -0.106
Cc1ccc(S[C@]2(C(=O)O)CC(=O)N(C3CCCCC3)[C@@H]2c2ccc(CO)cc2)cc1; -0.0031
O=C1N(CCS(=O)(=O)c2ccccc2)c2ccccc2[C@H]2OC(c3ccc(OCCCO)cc3)=N[C@@]12CCS(=O)(=O)c1ccccc1; 0.0197

The compound identified as CC(C)(C)OC(=O)CC[C@]1(C(=O)O)COC(c2ccc(OCCCO)cc2)=N1 registered its composite z-score at -0.118

Record COCCCNC(=O)[C@]1(Cc2ccccc2CN=[N+]=[N-])N=C(c2ccc(OCCCO)cc2)O[C@@H]1c1ccccc1CN=[N+]=[N-] , field composite z-score: 0.0427
